Source listed as patent US9375000B2.

Test system: Ctenocephalides felis
assay.summary: Test against Ctenocephalides felis (CTECFE), blood feeding
Assay type: in vivo
condition: application rate 100 ppm in cattle blood; after 2 days
Could you please report measured activity (mortality) for the items listed next?
One number for each entry, in %.

[
  {
    "compound": "O=C(NCc1cnc(N2CCC(c3cc(Cl)c(F)c(Cl)c3F)(C(F)(F)F)C2O)nc1C(F)(F)F)C1CC1 (stereo not drawn)",
    "activity (mortality), %": 90
  },
  {
    "compound": "O=C(NCc1ccc(N2CCC(c3cc(Cl)c(Cl)c(Cl)c3)(C(F)(F)F)C2O)cc1Cl)C1CC1 (stereo not drawn)",
    "activity (mortality), %": 90
  }
]

Please give activity (mortality), item by item, for the list that follows.
1. O=C(CC(F)(F)F)NCc1cnc(N2CCC(c3cc(Cl)c(Cl)c(Cl)c3)(C(F)(F)F)C2O)cc1C(F)(F)F (stereo not drawn)
2. O=C(NCc1cnc(N2CCC(c3cc(Cl)c(F)c(Cl)c3F)(C(F)(F)F)C2O)cc1C(F)(F)F)C1CC1 (stereo not drawn)
3. O=C(NCc1ccc(N2CCC(c3cc(F)cc(C(F)(F)F)c3)(C(F)(F)F)C2O)nc1C(F)(F)F)C1CC1 (mixture of isomers)

1. 90
2. 95
3. 95

Data request, read-out activity (mortality), for CCCC(=O)NCc1ccc(N2CCC(c3cc(Cl)c(Cl)c(Cl)c3)(C(F)(F)F)C2O)nc1C(F)(F)F (stereo not drawn)
95

====

Tested on: Larvae of Spodoptera litura
assay.summary: Larvae of Spodoptera litura, method using artificial feeds
Format: in vivo
condition: active compound concentration 4 ppm; artificial feed; after 7 days
measure.name: insecticidal activity (pesticidal ratio)
Provide a numeric answer, followed by its unit.

Below: 3 compounds and their reported insecticidal activity (pesticidal ratio).
[
  {
    "compound": "CSCC(=O)NCc1ccc(N2CCC(c3cc(C(F)(F)F)cc(C(F)(F)F)c3)(C(F)(F)F)C2O)nc1Br (mixture of isomers)",
    "measured.target": "Larvae of Spodoptera litura",
    "result": "100%"
  },
  {
    "compound": "O=C(NCc1ccc(N2CCC(c3cc(F)c(F)c(F)c3)(C(F)(F)F)C2O)cc1C(F)(F)F)C1CC1 (stereo not shown)",
    "measured.target": "Larvae of Spodoptera litura",
    "result": "80%"
  },
  {
    "compound": "O=C(CC1CC1)NCc1ccc(N2CCC(c3cc(Cl)cc(Cl)c3)(C(F)(F)F)C2O)nc1C(F)(F)F (stereo not shown)",
    "measured.target": "Larvae of Spodoptera litura",
    "result": "100%"
  }
]

# ---- query compound ----
Need insecticidal activity (pesticidal ratio) of CCC(=O)NCc1ccc(N2CCC(c3cc(Cl)c(F)c(Cl)c3F)(C(F)(F)F)C2O)cc1Br (stereo not shown) , thanks.
100%

====

System: mustard beetle larvae (Phaedon cochleariae)
assay.summary: Phaedon cochleariae test (PHAECO spray application)
Format: in vivo
condition: application rate 500 g/ha; after 7 days
What activity (mortality) was measured for each of the following?

Worked examples follow.
[
  {
    "compound": "CCC(=O)NCc1cc(F)c(N2CCC(c3cc(Cl)cc(Cl)c3)(C(F)(F)F)C2O)nc1Cl (stereo not shown)",
    "measured.target": "mustard beetle larvae (Phaedon cochleariae)",
    "result": "100%"
  },
  {
    "compound": "Cc1cc(N2CCC(c3cc(Cl)cc(Cl)c3)(C(F)(F)F)C2O)ccc1CNC(=O)CC(F)(F)F (mixture of isomers)",
    "measured.target": "mustard beetle larvae (Phaedon cochleariae)",
    "result": "100%"
  }
]

Hello, I would appreciate it if you could give activity (mortality) for each entry below.
1. Cc1cc(N2CCC(c3cc(Cl)cc(Cl)c3)(C(F)(F)F)C2O)ccc1CNC(=O)C1CC1 (mixture of isomers)
2. O=C(NCc1cc(F)c(N2CCC(c3cc(Cl)cc(Cl)c3)(C(F)(F)F)C2O)nc1Cl)C1CC1 (stereo not shown)

1. 100%
2. 100%

====

Tested on: Cucurbit Leaf Beetle (Aulacophora femoralis)
assay.summary: Cucurbit leaf beetle (Aulacophora femoralis) cucumber leaf dip test
Type: in vivo
condition: Aulacophora, foliar, 168 h; active compound concentration 20 ppm; after 7 days; read-out: insecticidal activity
measure.name: pest or weed control at 20 ppm (%)
Numbers only, in %.

Sample answers from the record:
[
  {
    "compound": "O=C(NCc1cnc(N2CCC(c3cc(Cl)c(Cl)c(Cl)c3)(C(F)(F)F)C2O)nc1C(F)(F)F)C1CC1 (stereo not shown)",
    "pest or weed control at 20 ppm (%)": 100
  },
  {
    "compound": "CCC(=O)NCc1ccc(N2CCC(c3cc(Cl)c(Cl)c(Cl)c3)(C(F)(F)F)C2O)nc1C(F)(F)F (stereo not shown)",
    "pest or weed control at 20 ppm (%)": 100
  },
  {
    "compound": "CCC(=O)NCc1ccc(N2CCC(c3cc(Cl)cc(Cl)c3)(C(F)(F)F)C2O)cc1C(F)(F)F (stereo not shown)",
    "pest or weed control at 20 ppm (%)": 100
  }
]

For the next question, use this compound.
I have this compound here, N#Cc1ccc(N2CCC(c3cc(Cl)c(F)c(Cl)c3F)(C(F)(F)F)C2O)cc1C(F)(F)F (stereo not shown) , and I need its recorded pest or weed control at 20 ppm.
100

====

Tested on: Larvae of Spodoptera litura
assay.summary: Larvae of Spodoptera litura, method using artificial feeds
Type: in vivo
condition: active compound concentration 4 ppm; artificial feed; after 7 days
measure.name: insecticidal activity (pesticidal ratio) (%)
Give bare numbers, in %.

Example molecules with recorded insecticidal activity (pesticidal ratio):
[
  {
    "molecule": "CC(C)CC(=O)NCc1ccc(N2CCC(c3cc(Cl)c(Cl)c(Cl)c3)(C(F)(F)F)C2O)nc1C(F)(F)F (stereo not shown)",
    "measure.name": "insecticidal activity (pesticidal ratio)",
    "unit.symbol": "%",
    "measured.number": 100
  },
  {
    "molecule": "O=C(NCc1cnc(N2CCC(c3cc(Cl)c(Cl)c(Cl)c3)(C(F)(F)F)C2O)nc1C(F)F)C1CC1 (stereo not shown)",
    "measure.name": "insecticidal activity (pesticidal ratio)",
    "unit.symbol": "%",
    "measured.number": 100
  },
  {
    "molecule": "O=C(NCc1ccc(N2CCC(c3ccc(F)c(C(F)(F)F)c3)(C(F)(F)F)C2O)nc1C(F)(F)F)C1CC1 (mixture of isomers)",
    "measure.name": "insecticidal activity (pesticidal ratio)",
    "unit.symbol": "%",
    "measured.number": 100
  },
  {
    "molecule": "N#CCC(=O)NCc1ccc(N2CCC(c3cc(Cl)c(Cl)c(Cl)c3)(C(F)(F)F)C2O)cc1Br (stereo not shown)",
    "measure.name": "insecticidal activity (pesticidal ratio)",
    "unit.symbol": "%",
    "measured.number": 100
  },
  {
    "molecule": "CC(=O)NCc1cc(F)c(N2CCC(c3cc(Cl)c(Cl)c(Cl)c3)(C(F)(F)F)C2O)cc1F (stereo not shown)",
    "measure.name": "insecticidal activity (pesticidal ratio)",
    "unit.symbol": "%",
    "measured.number": 80
  },
  {
    "molecule": "Cc1nc(N2CCC(c3cc(C(F)(F)F)cc(C(F)(F)F)c3)(C(F)(F)F)C2O)ccc1CNC(=O)CC1CC1 (stereo not shown)",
    "measure.name": "insecticidal activity (pesticidal ratio)",
    "unit.symbol": "%",
    "measured.number": 80
  }
]

Shift focus to the following entry.
# query: insecticidal activity (pesticidal ratio) | item CCC(=O)NCc1ccc(N2CCC(c3cc(Br)cc(Br)c3)(C(F)(F)F)C2O)cc1C(F)(F)F (stereo not shown) | system: Larvae of Spodoptera litura
100

====

Can you tell me activity (mortality) for the items I'm about to list?
Test system: Nymphs of the tick Amblyomma hebraeum
assay.summary: Amblyomma hebraeum test (AMBYHE), nymph immersion
Type: in vivo
condition: application rate 100 ppm; immersion one minute; 42 days
Answers are plain numbers, in %.

Below, 2 compounds whose answers are already recorded.
[
  {
    "compound": "O=C(CC(F)(F)F)NCc1ccc(N2CCC(c3cc(Cl)cc(C(F)(F)F)c3)(C(F)(F)F)C2O)nc1C(F)(F)F (racemic)",
    "measure.name": "activity (mortality)",
    "unit.symbol": "%",
    "measured.number": 100
  },
  {
    "compound": "O=C(NCc1cnc(N2CCC(c3cc(Cl)c(F)c(Cl)c3F)(C(F)(F)F)C2O)nc1C(F)(F)F)C1CC1 (stereo not drawn)",
    "measure.name": "activity (mortality)",
    "unit.symbol": "%",
    "measured.number": 100
  }
]

Shift focus to the following entry.
Hello, I am looking for reported activity (mortality) with Nymphs of the tick Amblyomma hebraeum for CCC(=O)NCc1ccc(N2CCC(c3cc(F)cc(C(F)(F)F)c3)(C(F)(F)F)C2O)nc1C(F)(F)F (mixture of isomers) . Could you help?
100
